Test system: E. multilocularis metacestode vesicles
Assay: Metacestode vesicle viability assay (ATP, CellTiter-Glo)
Type: cell-based, Echinococcus multilocularis
Conditions: overview screen, 10 μM, singlets, 12 days, relative to DMSO control
Exercise: state measured Viability d12 (relative viability) for each of the compounds provided.
Please state the figure in %; there is no need to write the unit.

Please report the recorded Viability d12 (relative viability) for CN(Cc1ccc(C(C)(C)C)cc1)Cc1cccc2ccccc12.Cl .
73.8114

Please report the recorded Viability d12 (relative viability) for CC(C)=CCC/C(C)=C\CNCCNC1C2CC3CC(C2)CC1C3 (stereo not drawn) .
47.5933

Please report the recorded Viability d12 (relative viability) for CCCNc1ccc(S(=O)(=O)Nc2cc(C)on2)cc1 .
105.791

Please report the recorded Viability d12 (relative viability) for CC1(C)Cc2c(C#N)c(SCCc3ccccc3)nc(N3CCOCC3)c2CO1 .
93.3497

Please report the recorded Viability d12 (relative viability) for O=C(/C(=C/c1ccc(Cl)cc1Cl)n1ccnc1)c1ccc(Cl)cc1 .
14.6955

Please report the recorded Viability d12 (relative viability) for Cc1cccc(CC(=O)N[C@H]2CCOC2=O)c1 .
167.646

* * *

Tested on: E. multilocularis metacestode vesicles
Assay: Phosphoglucose isomerase (PGI) release assay (damage-marker release) on metacestode vesicles
Assay type: cell-based, Echinococcus multilocularis
Conditions: overview screen, 10 μM, singlets, 12 days, relative to 0.1 % Triton X-100, DMSO subtracted
property_label: PGI d12 (relative PGI release) (%)
Please state the figure in %; there is no need to write the unit.

Please report the recorded PGI d12 (relative PGI release) for COCCn1cnc2c(O)nc(Nc3ccccc3)nc21 [MMV1782103] .
-2.0996

Please report the recorded PGI d12 (relative PGI release) for COc1ccc(NC(=O)CC2Sc3ncnn3C2=O)cc1 (centres unmarked) [MMV1483032] .
-11.504

Please report the recorded PGI d12 (relative PGI release) for CC(C)(C)c1cccc(-c2nc3cc(C(=N)N)ccc3[nH]2)c1O [MMV1581548] .
-24.7037

Please report the recorded PGI d12 (relative PGI release) for CC(C)N=c1cc2n(-c3ccc(Cl)cc3)c3ccccc3nc-2cc1Nc1ccc(Cl)cc1 [MMV687800] .
104.553

Please report the recorded PGI d12 (relative PGI release) for Nc1nc(N)c2c(Sc3ccccc3)cccc2n1 [MMV021759] .
-12.5973

Please report the recorded PGI d12 (relative PGI release) for Cc1nc2ccc(Cl)cc2c(-c2ccccc2)c1CC(=O)O [MMV1580801] .
83.9153

Please report the recorded PGI d12 (relative PGI release) for NC1C2CC3CC(C2)CC1C3 (centres unmarked) [MMV180402] .
-14.4779

Please report the recorded PGI d12 (relative PGI release) for CSC[C@H]1CN(Cc2c[nH]c3c(N)ncnc23)C[C@@H]1O [MMV1578565] .
-12.574

* * *

Tested on: E. multilocularis metacestode vesicles
Assay: Phosphoglucose isomerase (PGI) release assay (damage-marker release) on metacestode vesicles
Format: cell-based, Echinococcus multilocularis
Settings: overview screen, 10 μM, singlets, 5 days, relative to 0.1 % Triton X-100, DMSO subtracted
Exercise: state measured PGI d5 (relative PGI release) for each of the compounds provided.
Please state the figure in %; there is no need to write the unit.

Please report the recorded PGI d5 (relative PGI release) for O=C(CCc1ccc2c(c1)OCO2)NCc1ccc(-c2ccccc2F)cc1 [MMV1782110] .
-0.8152

Please report the recorded PGI d5 (relative PGI release) for CCOc1noc2cc(OCCC3CCN(c4ccc(C)nn4)CC3)ccc12 [MMV1634071] .
0.1516

Please report the recorded PGI d5 (relative PGI release) for CCOC(=O)N1CCN(c2ccc(Cl)cc2)CC1 [MMV1578898] .
-0.03171

Please report the recorded PGI d5 (relative PGI release) for C=C(C)[C@@H]1CC[C@]2(C(=O)O)CC[C@]3(C)[C@H](CC[C@@H]4[C@@]5(C)CC[C@H](O)C(C)(C)[C@@H]5CC[C@]43C)[C@@H]12 [MMV638198] .
-0.508

Please report the recorded PGI d5 (relative PGI release) for CCC(C)NCC(O)Cn1c2ccc(Cl)cc2c2cc(Cl)ccc21 (centres unmarked) [MMV1578570] .
90.467

Please report the recorded PGI d5 (relative PGI release) for O=S(=O)(Nc1ccc(O)cc1)c1cccc2cccnc12 [MMV251679] .
0.1251

Please report the recorded PGI d5 (relative PGI release) for COc1cc(C)c2c(Oc3cccc(C(F)(F)F)c3)c(OC)cc(NC(C)CCCN)c2n1.O=C(O)CCC(=O)O (centres unmarked) [MMV000043] .
8.8572

Please report the recorded PGI d5 (relative PGI release) for Cc1nc(-c2ccc(C3N(C)c4ccc(F)cc4C(=O)N3c3ccccc3)s2)cs1 (centres unmarked) [MMV1582492] .
-1.6173

* * *

Tested on: E. multilocularis metacestode vesicles
Assay: Phosphoglucose isomerase (PGI) release assay (damage-marker release) on metacestode vesicles
Format: cell-based, Echinococcus multilocularis
Settings: overview screen, 10 μM, singlets, 12 days, relative to 0.1 % Triton X-100, DMSO subtracted
Experimental: In order to quantify the drug-induced damage on whole metacestode vesicles, phosphoglucose isomerase (PGI) assay was performed as described previously ([Stadelmann et al., 2010]) with few adaptations published recently ([Kaethner et al., 2023]). […] PGI activity in the supernatants was measured on a HIDEX Sense microplate reader (Hidex, Turku, Finland). […] IC50 values were calculated applying the 3 parameter Weibull type 1 in R for each of the three independent experiments ([Ritler et al., 2020]).
Entries whose PGI d12 (relative PGI release) is below -10% take yes; entries at or above -10% take no.

Lab note: confirm whether the reported PGI d12 (relative PGI release) for this compound is below -10%, equality not counting. compound: Cc1c(F)cccc1NC(=O)Nc1ccc(Cl)c(S(=O)(=O)[C@H]2CCCNC2)c1O
no

Lab note: confirm whether the reported PGI d12 (relative PGI release) for this compound is below -10%, equality not counting. compound: Nc1nc2c(ncn2/C=C2/CC2(CO)CO)c(=O)[nH]1
no

Lab note: confirm whether the reported PGI d12 (relative PGI release) for this compound is below -10%, equality not counting. compound: CCCCCCC1c2ccc(O)cc2Oc2cc(O)ccc21
yes

Lab note: confirm whether the reported PGI d12 (relative PGI release) for this compound is below -10%, equality not counting. compound: C=C[C@]1(C)C[C@@H](OC(=O)CS[C@@H]2C[C@H]3CC[C@@H](C2)N3C)[C@]2(C)[C@H](C)CC[C@]3(CCC(=O)[C@H]32)[C@@H](C)[C@@H]1O
no

Lab note: confirm whether the reported PGI d12 (relative PGI release) for this compound is below -10%, equality not counting. compound: CC(C)Oc1cccc(NC(=O)c2ccccc2C(F)(F)F)c1
yes

Lab note: confirm whether the reported PGI d12 (relative PGI release) for this compound is below -10%, equality not counting. compound: CCN1CCN(Cc2nc3ccc([N+](=O)[O-])cc3c(=O)n2-c2ccccc2F)CC1
no

Lab note: confirm whether the reported PGI d12 (relative PGI release) for this compound is below -10%, equality not counting. compound: CCN(CC)CCn1c(=N)n(CC(O)COc2ccc(Cl)cc2Cl)c2ccccc21 (centres unmarked)
yes

Lab note: confirm whether the reported PGI d12 (relative PGI release) for this compound is below -10%, equality not counting. compound: CC(C)Cn1c(=O)n(C)c(=O)c2c(-c3cncn3C)n(Cc3cccc4ccccc34)nc21
no

Lab note: confirm whether the reported PGI d12 (relative PGI release) for this compound is below -10%, equality not counting. compound: NC(=O)c1cnc2ccc(S(=O)(=O)c3ccccc3)cc2c1Nc1ccc(O)cc1
no

Lab note: confirm whether the reported PGI d12 (relative PGI release) for this compound is below -10%, equality not counting. compound: N[C@H]1CCC[C@H]1C(=O)O
no

Lab note: confirm whether the reported PGI d12 (relative PGI release) for this compound is below -10%, equality not counting. compound: Cc1ccc(C)c(OCCCCCCN2C[C@H](O)[C@@H](O)[C@H](O)[C@H]2CO)c1
no

Lab note: confirm whether the reported PGI d12 (relative PGI release) for this compound is below -10%, equality not counting. compound: CC1CCc2c(N3CCC(O)CC3)c(F)cc3c(=O)c(C(=O)O)cn1c23 (centres unmarked)
no

Lab note: confirm whether the reported PGI d12 (relative PGI release) for this compound is below -10%, equality not counting. compound: Oc1ccc2[nH]c(-c3ccccc3)nc2c1
no

Lab note: confirm whether the reported PGI d12 (relative PGI release) for this compound is below -10%, equality not counting. compound: CCCCCOc1ccc(/C=C2\Oc3c(ccc(O)c3O)C2=O)c(O)c1
yes

Lab note: confirm whether the reported PGI d12 (relative PGI release) for this compound is below -10%, equality not counting. compound: COc1cc(C2C3=C(CC(C)(C)CC3=O)Nc3ccccc3N2C(C)=O)ccc1OCc1ccccc1 (centres unmarked)
yes

Lab note: confirm whether the reported PGI d12 (relative PGI release) for this compound is below -10%, equality not counting. compound: C=CCc1cc(Cc2cnc(N)nc2N)cc(OC)c1O
no

Lab note: confirm whether the reported PGI d12 (relative PGI release) for this compound is below -10%, equality not counting. compound: CCCCCc1ccc(C(=O)NCCn2cc(CCCCCc3c[nH]c(N)n3)nn2)cc1.Cl
no

Lab note: confirm whether the reported PGI d12 (relative PGI release) for this compound is below -10%, equality not counting. compound: O=C(Nc1ccccc1C(=O)O)c1cccc(Oc2ccccc2)c1
no

Lab note: confirm whether the reported PGI d12 (relative PGI release) for this compound is below -10%, equality not counting. compound: Clc1cc2nc(C3CCNCC3)n(Cc3ccc(CNCCc4c[nH]cn4)cc3)c2cc1Cl
yes

Lab note: confirm whether the reported PGI d12 (relative PGI release) for this compound is below -10%, equality not counting. compound: O=C(NCc1cccc2ccccc12)c1cccs1
yes
